- assayProtocol: chemical genetic growth profiling, strain panel (AID 1159580);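 further: tested at 20 µM; growth read once vehicle control cultures reached saturation at 30 °C; 1 = growth at the plate median or of vehicle wells; lower values mean less growth of the strain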
- experimentalContext: S. cerevisiae deletion strains, growth OD, locus YNL233W, strain BNI4, active compounds read low
The whole screen tested about 5,500 compounds, of which about 2,000 (36%) were called active. Not shown: some 18% with an inconclusive outcome. Some of the results follow.
Item-by-item account of normalized growth
Please state the value as a number alone, without comment.

# compound, normalized growth
rows = [
    ("CC(=O)OCC(=O)[C@@]12OC(C)(C)O[C@@H]1CC1C3C[C@H](F)C4=CC(=O)C=C[C@]4(C)[C@@]3(F)[C@@H](O)C[C@@]12C (some centres not stated)", 1.01),
    ("CC(COc1ccccc1)N(CCCl)Cc1ccccc1 (configuration not stated)", 1.01),
]

Query string: # get_value(readout='normalized growth', item= NCCCCN=C(N)N )
Result string: 0.988

Query string: # get_value(readout='normalized growth', item= CCCSP(=O)(OCC)SCCC )
Result string: 1.01

Query string: # get_value(readout='normalized growth', item= CN(C)CCCO[C@H]1[C@@H](C(O)CO)OC2OC(C)(C)O[C@@H]21 (some centres not stated) )
Result string: 0.917

Query string: # get_value(readout='normalized growth', item= COc1cc(C(=O)O)cc(OC)c1O )
Result string: 0.982

Query string: # get_value(readout='normalized growth', item= C[C@H](COc1ccccc1)N[C@H](C)[C@H](O)c1ccc(O)cc1 )
Result string: 0.979
